system tested: CD44-HABD (UniProt P16070)
Sequence (P16070 20-178): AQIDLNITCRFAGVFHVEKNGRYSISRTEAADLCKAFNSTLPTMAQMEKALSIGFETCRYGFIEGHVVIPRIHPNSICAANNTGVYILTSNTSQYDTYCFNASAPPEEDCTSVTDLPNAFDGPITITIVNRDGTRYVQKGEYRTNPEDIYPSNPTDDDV
test name: filter binding
measurement setup: X = T18 as amino-dU; monothioate backbone; Filter binding: 1 nM biotinylated XA, 20 mM Tris pH 8.0, 150 mM NaCl, 40 min, room temperature; cell binding at room temperature, 30-60 min
reported metric: Kd (nM)
Record the value in nM, omitting the unit from your answer.

The recorded Kd for entry TTGGGGCCTGCAAGACGTCCATAGACACAG [XA4-NH2] equals 137

* * *

system tested: CD44-HABD (UniProt P16070)
test name: filter binding
measurement setup: X = T7, T18 as amino-dU; monothioate backbone; Filter binding: 1 nM biotinylated XA, 20 mM Tris pH 8.0, 150 mM NaCl, 40 min, room temperature; cell binding at room temperature, 30-60 min
reported metric: pKd
The value called pKd is obtained by taking minus log10 of the concentration in mol/L.

The recorded pKd for entry TGCAGATACAGTAAACGTCCATAGACACAG [XA5-NH2] equals 6.86
